- measurementNotes: Aqueous solubility of the compound
- Format: physicochemical
- conditionsUsed: aqueous medium
measurementKind: solubility

Exam item: Return reported solubility; argument: `Cc1cc(C#N)cc(C)c1Oc1nc(Nc2ccc(C#N)cc2)nc(N)c1Br`
Marked response: < 1 µg/mL

###

- measurementNotes: Equilibrium solubility of the compound by shake-flask method
- Assay type: physicochemical
measurementKind: solubility thermodynamic (µg/mL)
Numbers only, in µg/mL.

Exam item: Need solubility thermodynamic, item CN1C(C(=O)Nc2ccccn2)=C(O)c2ccccc2S1(=O)=O [PIROXICAM]
Marked response: 6.4

###

Exercise: for every item that follows, state its recorded pEC50.
- Tested on: Human immunodeficiency virus 1
- measurementNotes: Antiviral activity against HIV1 3B harboring reverse transcriptase Y181C mutant infected in human MT2 cells assessed as protection against virus-induced effect by MTT assay
- Format: functional, organism-based
- conditionsUsed: Human immunodeficiency virus 1, 3B, MT2; read-out: EC50
Give bare numbers, as −log10 of the molar value.

A selection of reference data follows.
Cc1cc(C)c(Nc2cc(OCCCN3CCOCC3)nc(Nc3ccc(C#N)cc3)n2)c(C)c1 ... 6.32
CCc1cc(F)c(Nc2nc(Nc3ccc(C#N)cc3)nc(OCCCN3CCOCC3)n2)c(F)c1 ... 6.30
Cc1cc(C#N)cc(C)c1Nc1nc(Nc2ccc(C#N)cc2)nc(OCCCN2CCOCC2)n1 ... 6.00

Items follow; give pEC50 for each.
1. Cc1cc(F)c(Nc2nc(Nc3ccc(C#N)cc3)nc(OCCCN3CCOCC3)n2)c(F)c1
2. Cc1cc(C)c(Nc2nc(Nc3ccc(C#N)cc3)nc(OCCCC3CCNCC3)n2)c(C)c1
3. Cc1cc(C)c(Nc2nc(Nc3ccc(C#N)cc3)nc(OCCC3CCNCC3)n2)c(C)c1
4. Cc1cc(C)c(Nc2nc(Nc3ccc(C#N)cc3)nc(OCCN3CCOCC3)n2)c(C)c1
5. Cc1cc(C)c(Nc2nc(Nc3ccc(C#N)cc3)nc(OCCCN3CCOCC3)n2)c(C)c1
6. Cc1cc(C)c(Nc2cc(OCCN3CCOCC3)nc(Nc3ccc(C#N)cc3)n2)c(C)c1
7. Cc1cc(C)c(Nc2ccnc(Nc3ccc(C#N)cc3)n2)c(C)c1

Marked response:
1: 6.46; 2: 5.92; 3: 6.00; 4: 6.15; 5: 6.51; 6: 6.15; 7: 7.41

Parameter requested: pEC50. Apply to each item below.
1. N#Cc1ccc(Nc2nc(Nc3c(F)cc(C4CC4)cc3F)nc(OCCCN3CCOCC3)n2)cc1
2. CC(C)c1cc(F)c(Nc2nc(Nc3ccc(C#N)cc3)nc(OCCCN3CCOCC3)n2)c(F)c1

Marked response:
5.96
6.57

###

Please go through the items and note down their solubility thermodynamic at 48 h.
- measurementNotes: Aqueous solubility of the compound in Britton-Robinson buffer at pH 6.5 after 48 hrs by shake-flask method
- Format: physicochemical

Some compounds with known solubility thermodynamic at 48 h results, for comparison:
Cc1cc(F)c(Nc2nc(Nc3ccc(C#N)cc3)nc(OCCCN3CCOCC3)n2)c(F)c1 ... 22.9 µg/mL
Cc1cc(C)c(Nc2ncnc(Nc3ccc(C#N)cc3)n2)c(C)c1 ... 0.2 µg/mL
Cc1cc(C)c(Nc2cc(OCCCN3CCOCC3)nc(Nc3ccc(C#N)cc3)n2)c(C)c1 ... 27.3 µg/mL

Now let's try a different one.
Exam item: Could you tell me which solubility thermodynamic at 48 h is on file for `Cc1cc(/C=C/C#N)cc(C)c1Nc1nc(Nc2ccc(C#N)cc2)nc(OCCCN2CCOCC2)n1` ?
Marked response: 14.2 µg/mL
